# Tgt: human Factor IXa (human, UniProt P00740 47-191; P00740 227-461)
# Test: cell-based or functional assay
Square brackets hold non-standard residues; d marks the D form. Primed or numbered codes have the meaning given here. Side chains are listed from the residue outwards. Ends that are not written are not given here. * marks the point of attachment. Biotin = O=C1N[C@H]2[C@H](CS[C@H]2CCCCC(=O)*)N1; PEG2″ = not defined here
Measurement type: EC50 [µM], FXa generation assay

Record excerpt, results attached:
| Binder | Measurement type | Endpoint result |
| --- | --- | --- |
| PRIRTVGPGSRSASGKLTCFASYCWLFWTGIA | EC50 [µM], FXa generation assay | > 1 µM |
| KKLTCLASYCWLF | EC50 [µM], FXa generation assay | < 0.5 µM |
| NLTGRASYGWLP | EC50 [µM], FXa generation assay | > 20 µM |
| RRK([PEG2″-Biotin])PGKLTCLASYCWLFWTGIA (not fully specified; printed as RRK(PEG2-Biotin)PGKLTCLASYCWLFWTGIA; cysteine pairing not given here) [RRK(PEG2-Biotin)PGKLTCLASYCWLFWTGIA] | EC50 [µM], FXa generation assay | < 0.5 µM |
| [dR]RAAGKLTCLASYCWLFATGIA (not fully specified (C-terminus); printed as rRAAGKLTCLASYCWLFATGIA; cysteine pairing not given here) [rRAAGKLTCLASYCWLFATGIA] | EC50 [µM], FXa generation assay | < 0.5 µM |

Could you tell me EC50 [µM], FXa generation assay for each of these binders? They are listed below.
1. KLTSLASYSWLF
2. VSGTGRLTCVASYCWMFQLGSF

output:
1. > 15 µM
2. < 0.5 µM
